Assay: single intravenous dose pharmacokinetics in Sprague Dawley rats
Assay type: in vivo
Settings: plasma, rat, male, single IV 5 mg/kg
Procedure: In vitro and in vivo studies were conducted to characterize the absorption, PK, distribution, and metabolism of Compound 1. […] Additionally, plasma samples from single dose PK studies in mice and monkeys were evaluated for circulating metabolites.

smiles_record: CCOCc1cnc(Cl)nc1Oc1ccc2c(ccc3sc4c(c32)NC[C@@H](C)NC4=O)n1
value_units: µg·h/mL
AUC(0-inf): 2.02

====

assay: single oral dose pharmacokinetics in cynomolgus monkeys; assay type: in vivo, cynomolgus monkey; details: cynomolgus monkey, plasma; monkey, female, single oral 150 mg/kg

smiles_record: CCOCc1cnc(Cl)nc1Oc1ccc2c(ccc3sc4c(c32)NC[C@@H](C)NC4=O)n1
AUC(0-inf): 4820 ng·h/mL
